systemTested: hGIPR (Homo sapiens)
Sequence (P48546 22-466): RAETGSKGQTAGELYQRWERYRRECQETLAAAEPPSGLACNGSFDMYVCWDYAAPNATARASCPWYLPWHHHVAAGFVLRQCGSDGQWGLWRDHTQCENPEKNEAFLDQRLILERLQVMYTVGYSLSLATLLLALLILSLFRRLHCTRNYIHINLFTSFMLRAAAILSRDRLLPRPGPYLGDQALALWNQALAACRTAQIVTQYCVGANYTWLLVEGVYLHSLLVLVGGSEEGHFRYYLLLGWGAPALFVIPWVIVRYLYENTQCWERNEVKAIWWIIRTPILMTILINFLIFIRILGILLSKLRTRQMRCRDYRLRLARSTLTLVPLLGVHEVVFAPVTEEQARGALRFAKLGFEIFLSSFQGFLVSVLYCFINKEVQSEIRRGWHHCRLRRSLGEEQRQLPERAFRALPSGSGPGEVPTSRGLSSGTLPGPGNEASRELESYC
methodDescription: Functional cAMP activity in the presence of 1% HSA
Assay type: cell-based
testSettings: read-out: cAMP Rel EC50, hGIPR
Starred links: 1 amine or outer side, 2 acyl side, 3 side chain; linkers in the order of their positions; H or OH if unused. Non-standard residues stand in square brackets, D forms with d. Groups on a side chain read outwards from the residue. No end group written: not given here. *: point of attachment. C20 diacid = O=C(O)CCCCCCCCCCCCCCCCCCC(=O)*; C18 diacid = O=C(O)CCCCCCCCCCCCCCCCC(=O)*; αMePhe(2-F) = C[C@](N)(Cc1ccccc1F)C(=O)O; γGlu = O=C(O)[C@H](CCC(=O)[*:2])N[*:1]; αMe4Pal = C[C@](N)(Cc1ccncc1)C(=O)O; αMeY = C[C@](N)(Cc1ccc(O)cc1)C(=O)O; 4Pal = N[C@@H](Cc1ccncc1)C(=O)O; αMeL = CC(C)C[C@](C)(N)C(=O)O; αMeS = C[C@](N)(CO)C(=O)O; Orn = NCCC[C@H](N)C(=O)O; AEEA = NCCOCCOCC(=O)O; Aib = CC(C)(N)C(=O)O
The following substances are listed with their measured EC50 values.
Report the figure in nM without appending any unit label.

{"substance": "H-Y[Aib]QGTFTSDYSI[αMeL]LDKIAAK([AEEA-AEEA-γGlu-C20 diacid])QFVEWLLA[Aib]GPSSGEPPPSEG-NH2 [Example 324]", "systemTested": "hGIPR (Homo sapiens)", "EC50 / nM": 20.7}

# get_value(readout='EC50', item= H-Y[Aib]QGT[αMePhe(2-F)]TSD[4Pal][αMeS]I[αMeL]LD[Orn]K([AEEA-γGlu-C18 diacid])AQ[αMe4Pal]EFI[dE][αMeY]LIEGGPSSGAPPPEGE-NH2 [Example 1148] )
0.873

Lookup H-Y[Aib]QGTFTSD[4Pal]SQ[αMeL]LD[Orn]K([AEEA-γGlu-C18 diacid])AQ[αMe4Pal]QFIE[αMeY]LIEGGPSSGAPPPSGS-NH2 [Example 857]
36.1

Lookup Y[Aib]QGT[αMePhe(2-F)]TSD[4Pal]SILLDKK([γGlu-γGlu-C18 diacid])AQ[Aib]AFIEYLQEGGPSSGAPPPSGTEE-NH2 [Example 580]
6.29

###

systemTested: hGLP-1R (Homo sapiens)
Sequence (P43220 24-463): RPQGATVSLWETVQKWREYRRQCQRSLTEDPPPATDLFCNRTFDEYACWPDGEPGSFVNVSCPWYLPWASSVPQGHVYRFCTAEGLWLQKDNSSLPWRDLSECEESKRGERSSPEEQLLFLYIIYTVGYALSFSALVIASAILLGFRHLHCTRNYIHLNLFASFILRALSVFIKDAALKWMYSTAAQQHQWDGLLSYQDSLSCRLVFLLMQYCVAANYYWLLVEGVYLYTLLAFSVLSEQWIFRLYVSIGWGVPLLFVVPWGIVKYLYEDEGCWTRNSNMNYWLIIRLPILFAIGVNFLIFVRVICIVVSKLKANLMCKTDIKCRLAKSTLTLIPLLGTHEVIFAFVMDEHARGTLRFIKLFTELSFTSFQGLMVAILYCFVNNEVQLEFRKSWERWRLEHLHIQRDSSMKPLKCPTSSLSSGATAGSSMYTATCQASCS
methodDescription: Functional cAMP activation in the presence of 0.1% casein (no HSA);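 further: intracellular cAMP rise after 30 min at 37 °C read by HTRF, normalized between buffer only (0%) and maximal control ligand (100%), four-parameter variable-slope fit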
Assay type: cell-based
testSettings: in the presence of 0.1% casein (no HSA); geometric mean; read-out: Relative cAMP EC50, hGLP-1R
Starred links: 1 amine or outer side, 2 acyl side, 3 side chain; linkers in the order of their positions; H or OH if unused. Non-standard residues stand in square brackets, D forms with d. Groups on a side chain read outwards from the residue. *: point of attachment. C20 diacid = O=C(O)CCCCCCCCCCCCCCCCCCC(=O)*; C18 diacid = O=C(O)CCCCCCCCCCCCCCCCC(=O)*; Phe(4-CN) = N#Cc1ccc(C[C@H](N)C(=O)O)cc1; αMePhe(2-F) = C[C@](N)(Cc1ccccc1F)C(=O)O; γGlu = O=C(O)[C@H](CCC(=O)[*:2])N[*:1]; αMe4Pal = C[C@](N)(Cc1ccncc1)C(=O)O; αMeY = C[C@](N)(Cc1ccc(O)cc1)C(=O)O; 4Pal = N[C@@H](Cc1ccncc1)C(=O)O; αMeL = CC(C)C[C@](C)(N)C(=O)O; αMeS = C[C@](N)(CO)C(=O)O; Orn = NCCC[C@H](N)C(=O)O; AEEA = NCCOCCOCC(=O)O; Aib = CC(C)(N)C(=O)O
The following substances are listed with their measured EC50 values.
Report the figure in nM without appending any unit label.

Sample records with EC50:
{"substance": "H-Y[Aib]QGTFTSDFS[Orn][αMeL]LDKK([AEEA-γGlu-C18 diacid])AQ[Aib]AFIEYLLEGGPSSGAPPPGGT-NH2 [Example 158]", "recordedMeasurement": 2.49}
{"substance": "H-Y[Aib]QGT[αMePhe(2-F)]TSD[4Pal][αMeS]I[αMeL]LD[Orn]K([AEEA-γGlu-γGlu-C18 diacid])AQ[αMe4Pal]EFI[dE][αMeY]LIEGGPSSGEPPPSGE-NH2 [Example 1177]", "recordedMeasurement": 0.681}

# get_value(readout='EC50', item= H-Y[Aib]QGT[αMePhe(2-F)]TSD[Phe(4-CN)]SILLDKQAQK([AEEA-AEEA-γGlu-C20 diacid])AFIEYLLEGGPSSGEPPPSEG-NH2 [Example 321] )
0.798
